Data provenance: the supplement of paper PMC8728848

glycan array binding signal (z-score) values by entry
- tested on: GlcNAc(b1-4)Gal(b1-4)GlcNAc
- method notes: glycan array binding signal (z-score within array); higher = stronger binding
- condition details: glycan notation: IUPAC condensed, linker removed
This is one part of a sample in which the strongest signals are shown more often than they occur.
Write the value as a bare number.

binder: CLEC9a (Mus musculus), Q8BRU4 (protein) MHAEEIYTSLQWDIPTSEASQKCQSPSKCSGAWCVVTMISCVVCMGLLATSIFLGIKFFQVSSLVLEQQERLIQQDTALVNLTQWQRKYTLEYCQALLQRSLHSGSDCSPCPHNWIQNGKSCYYVFERWEMWNISKKSCLKEGASLFQIDSKEEMEFISSIGKLKGGNKYWVGVFQDGISGSWFWEDGSSPLSDLLPAERQRSAGQICGYLKDSTLISDKCDSWKYFICEKKAFGSCI
result type: glycan array binding signal (z-score)
reported measurement: 0.714

Next binder, please.
Consider Annexin-A1 (Mus musculus), P10107 (protein) MAMVSEFLKQARFLENQEQEYVQAVKSYKGGPGSAVSPYPSFNVSSDVAALHKAIMVKGVDEATIIDILTKRTNAQRQQIKAAYLQENGKPLDEVLRKALTGHLEEVVLAMLKTPAQFDADELRGAMKGLGTDEDTLIEILTTRSNEQIREINRVYREELKRDLAKDITSDTSGDFRKALLALAKGDRCQDLSVNQDLADTDARALYEAGERRKGTDVNVFTTILTSRSFPHLRRVFQNYGKYSQHDMNKALDLELKGDIEKCLTTIVKCATSTPAFFAEKLYEAMKGAGTRHKALIRIMVSRSEIDMNEIKVFYQKKYGISLCQAILDETKGDYEKILVALCGGN . Its measured glycan array binding signal (z-score) is -0.318
